This collection of values is drawn from patent US10597388B2.

Below, each entry is listed alongside its reported Plant response rating, Mustard, Wild.
Test system: mustard, wild (wild mustard, Sinapis arvensis)
Method Description: Test D controlled growth environment herbicide test, pre- and postemergence
Format: in vivo
Reported Conditions: Postemergence, 125 g ai/ha; visual rating on scale 0 (no effect) to 100 (complete control), 14 to 21 d
Lab note: record the figure alone, no unit after it.

{"Chem Smiles": "Cc1nn(C)c(=O)c(-c2c(C)sc3ccc(Br)cc23)c1O", "Plant response rating, Mustard, Wild": 100}
{"Chem Smiles": "COC(=O)Oc1c(C)nn(C)c(=O)c1-c1c(C)sc2ccc(C)cc12", "Plant response rating, Mustard, Wild": 70}
{"Chem Smiles": "Cc1ccc2ccccc2c1-c1c(O)c(Br)nn(C)c1=O", "Plant response rating, Mustard, Wild": 100}
{"Chem Smiles": "Cn1nc(Br)c(O)c(-c2cccc3ccccc23)c1=O", "Plant response rating, Mustard, Wild": 100}

Per the record, CC(=O)Oc1c(C)nn(C)c(=O)c1-c1c(C)sc2ccc(Cl)cc12 has Plant response rating, Mustard, Wild of 95
